biological target: HLA-A2 (Homo sapiens, UniProt P04439, D140Y/D185E/D98H/E176V/E277Q/G131W/G231S/I119V/I121R/I166T/I218V/L300P/L318F/N151K/N90K/P208A/P217A/Q86G/Q94H/R138H/R169H/T345S); construct: stabilization of the class I molecules after loading of peptide to the peptide transporter deficient cell line T2; endogenous in cells; host or cells: T2 (TAP-deficient human hybrid cell line), metabolically labelled lysate; assay: Assembly assay for peptide binding to class I MHC, HLA-A2; conditions: Example 1, Table 1; read-out: C50 (peptide concentration for half maximal binding to HLA-A2)
EC50 overview
reportedProperty: EC50 (µM)

- CC(C)C[C@H](NC(=O)[C@H](CCCCN)NC(=O)[C@H](CC(C)C)NC(=O)[C@H](Cc1ccccc1)NC(=O)[C@H](CCC(=O)O)NC(=O)CNC(=O)[C@H](CC(C)C)NC(=O)[C@H](CC(C)C)NC(=O)[C@@H](N)CC(C)C)C(=O)O: 1
- CSCC[C@H](NC(=O)[C@@H](N)CC(C)C)C(=O)N[C@@H](CC(C)C)C(=O)NCC(=O)N[C@@H](CCC(=O)O)C(=O)N[C@@H](Cc1ccccc1)C(=O)N[C@@H](CC(C)C)C(=O)N[C@@H](CCCCN)C(=O)N[C@@H](CC(C)C)C(=O)O: 1
- CC(C)C[C@H](NC(=O)[C@H](Cc1ccccc1)NC(=O)[C@@H]1CCCN1C(=O)[C@H](CCC(N)=O)NC(=O)[C@H](Cc1c[nH]c2ccccc12)NC(=O)[C@H](C)NC(=O)[C@@H]1CCCN1C(=O)[C@@H]1CCCN1C(=O)[C@H](CC(C)C)NC(=O)[C@@H](N)[C@@H](C)O)C(=O)O: 30
- CC(C)C[C@H](NC(=O)[C@H](CCCCN)NC(=O)[C@H](CC(C)C)NC(=O)[C@@H](N)Cc1ccccc1)C(=O)N[C@@H](CC(=O)O)C(=O)N[C@@H](CCCNC(=N)N)C(=O)N[C@@H](CCC(=O)O)C(=O)N[C@@H](CCCNC(=N)N)C(=O)N[C@@H](C)C(=O)O: 30
- CC(C)C[C@H](NC(=O)[C@H](CCCCN)NC(=O)[C@H](CC(C)C)NC(=O)[C@H](Cc1ccccc1)NC(=O)[C@H](CCC(=O)O)NC(=O)CNC(=O)[C@H](CC(C)C)NC(=O)[C@@H](NC(=O)[C@H](CC(C)C)NC(=O)[C@@H](N)CCC(=O)O)[C@@H](C)O)C(=O)O: 10
